# Test system: MDA-MB-453
# Assay comment: SRB cell viability after siRNA transfection
# Type: cell-based, human
# Test conditions: 40 nM siRNA, day 5 post-transfection, normalized over siCONTROL
We begin with a simple list: items and their reported % survival.

Known % survival results, listed for orientation:
Substance: siRNA #3: siRNA targeting human TTK: 5′-GCACGUGACUACUUUCAAA-3′ (SEQ ID NO: 5) (listed as RNA, chemistry not given here)
% survival: 0.18%

Substance: siRNA #4: siRNA targeting human TTK: 5′-GAUAAGAUCAUCCGACUUU-3′ (SEQ ID NO: 6) (listed as RNA, chemistry not given here)
% survival: 0.56%

Substance: siRNA #2: siRNA targeting human TTK: 5′-GGUAUUAACUGCCCAAGAA-3′ (SEQ ID NO: 4) (listed as RNA, chemistry not given here)
% survival: −0.04%

API: the following record is the query input.
Data request: Hello, please tell me recorded % survival for this one: siRNA #1: siRNA targeting human TTK: 5′-GCAAUACCUUGGAUGAUUA-3′ (SEQ ID NO: 3) (listed as RNA, chemistry not given here)
Data returned: 0.33%
